Reported values of % inhibition Apol 40' for individual entries
# Target Under Test: UniProt:Q8ILY1
# Protocol Description: Fluorescence-based high-throughput DNA polymerase assay (molecular beacon), primary screen and dose-response
# Assay type: biochemical
# Stated Conditions: DRC-2; 40'; conc 80
# Description: The HT assay employs a molecular beacon, a stem-loop DNA template with a Cy3 dye and the Black Hole Quencher on the 3′ and 5′ ends of the DNA, respectively. Pf-apPOL concentration is based on a calculated absorptivity of ε280 = 56750 M^−1 cm^−1. […] To identify apPOL inhibitors we utilised our previously developed high-throughput DNA polymerase assay. […] The assay accurately recapitulates the kinetic behaviour of apPOL, as measured through more conventional low-throughput gel-based assays. […]
Enter your answer as a number in %; do not include the unit.

Worked set:
Compound: COc1ccccc1C1CC(=O)Oc2cc3c(cc21)OCO3 (stereo not drawn)
Unit Annotation: %
% inhibition Apol 40': 80
--
Compound: N#CC(C#N)=C1SCN(c2cccc(Cl)c2)CS1
Unit Annotation: %
% inhibition Apol 40': 76

Lab note: next compound to report on.
Request: Find the recorded % inhibition Apol 40' belonging to Cc1ccc(CNC(=O)c2cnn3c(O)cc(CSc4ccc(Cl)cc4)nc23)cc1 and report it.
Result: 81

* * *

Reported values of % inhibition apPOL 180' for individual entries
# Target Under Test: P. falciparum apicoplast DNA polymerase (Pf-apPOL) (Plasmodium falciparum)
# Protocol Description: Fluorescence-based high-throughput DNA polymerase assay (molecular beacon), primary screen and dose-response
# Format: biochemical
# Stated Conditions: DRC-1; concentration 2.5; 180'
# From the text: The HT assay employs a molecular beacon, a stem-loop DNA template with a Cy3 dye and the Black Hole Quencher on the 3′ and 5′ ends of the DNA, respectively. Pf-apPOL concentration is based on a calculated absorptivity of ε280 = 56750 M^−1 cm^−1. […] To identify apPOL inhibitors we utilised our previously developed high-throughput DNA polymerase assay. […] The assay accurately recapitulates the kinetic behaviour of apPOL, as measured through more conventional low-throughput gel-based assays. […]
# number only, unit % dropped from output

These solved cases illustrate the format of a correct answer.
Compound: CCCCCc1c2c(cc(O)c1C(=O)O)OC(=O)c1c(cc(OC)cc1C(=O)CCCC)O2
% inhibition apPOL 180' [%]: 13.8829

Compound: O=C(O)c1nc(-c2ccccc2)nc2c1OCO2
% inhibition apPOL 180' [%]: -6.279

Compound: CCOc1ccc2cc(C3=NN(C(=O)CCC(=O)O)C(c4ccc(C)cc4)C3)c(=O)[nH]c2c1 (centres unmarked)
% inhibition apPOL 180' [%]: -8.679

Compound: Cc1cc(C)nc(Nc2nc(CC(=O)Nc3nc(-c4ccco4)cs3)cs2)n1
% inhibition apPOL 180' [%]: -14.5806

Compound: COc1ccc(NC(=O)Cn2nc3c(cc2=O)CCC3)cc1Cl
% inhibition apPOL 180' [%]: -9

Compound: O=[N+]([O-])c1ccc(SCc2ccco2)c2cccnc12
% inhibition apPOL 180' [%]: -3.317

Request: Consider the compound shown here: COc1ccc(-c2occ(C(=O)O)c2C(=O)O)cc1 What is its recorded % inhibition apPOL 180'?
Result: 0.2787

Request: Requested read-out: % inhibition apPOL 180'. Entry: Cc1ccnc(NS(=O)(=O)c2ccc(-n3cccc3)cc2)n1
Result: -4.513

* * *

# Target Under Test: P. falciparum apicoplast DNA polymerase (Pf-apPOL) (Plasmodium falciparum, UniProt Q8ILY1)
# Sequence (Q8ILY1 entry or part of it): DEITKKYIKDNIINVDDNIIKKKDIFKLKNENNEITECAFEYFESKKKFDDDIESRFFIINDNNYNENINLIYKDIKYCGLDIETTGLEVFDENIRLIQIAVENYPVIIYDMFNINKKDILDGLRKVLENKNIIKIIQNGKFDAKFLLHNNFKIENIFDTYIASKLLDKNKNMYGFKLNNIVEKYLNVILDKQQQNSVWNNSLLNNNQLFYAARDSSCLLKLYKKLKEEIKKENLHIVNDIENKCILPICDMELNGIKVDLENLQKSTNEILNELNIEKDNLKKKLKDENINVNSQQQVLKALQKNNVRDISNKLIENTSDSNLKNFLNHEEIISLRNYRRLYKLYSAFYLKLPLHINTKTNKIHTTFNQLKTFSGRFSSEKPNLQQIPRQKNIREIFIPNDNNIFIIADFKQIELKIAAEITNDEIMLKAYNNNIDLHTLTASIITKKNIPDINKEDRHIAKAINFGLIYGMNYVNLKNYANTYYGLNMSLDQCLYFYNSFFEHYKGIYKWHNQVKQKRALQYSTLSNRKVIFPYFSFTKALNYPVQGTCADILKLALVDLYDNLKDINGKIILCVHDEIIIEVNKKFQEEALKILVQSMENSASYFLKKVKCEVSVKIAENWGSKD
# Protocol Description: Fluorescence-based high-throughput DNA polymerase assay (molecular beacon), primary screen and dose-response
# Assay type: biochemical
# Stated Conditions: DRC-2; 5'; conc 2.5
Observable: % inhibition Apo pol 5'
Answer with the number, then the unit.

Compound: N#CC(C#N)=C1SCN(c2cccc(Cl)c2)CS1 [Molecule 29, N#CC(=C1SCN(CS1)c1cccc(c1)Cl)C#N]
Target Under Test: P. falciparum apicoplast DNA polymerase (Pf-apPOL) (Plasmodium falciparum, UniProt Q8ILY1)
% inhibition Apo pol 5': 14%
//
Compound: COc1ccccc1C1CC(=O)Oc2cc3c(cc21)OCO3 (stereo not shown) [KU0104502]
Target Under Test: P. falciparum apicoplast DNA polymerase (Pf-apPOL) (Plasmodium falciparum, UniProt Q8ILY1)
% inhibition Apo pol 5': 10%
//
Compound: Cc1cccc(C2=N/C(=C\c3ccc([N+](=O)[O-])o3)C(=O)O2)c1 [KU0058960]
Target Under Test: P. falciparum apicoplast DNA polymerase (Pf-apPOL) (Plasmodium falciparum, UniProt Q8ILY1)
% inhibition Apo pol 5': 15%

Request: Give its % inhibition Apo pol 5' value. Item: O=C1Nc2ccc(I)cc2C1=Cc1cc(Br)c(O)c(Br)c1 [Molecule 27]
Result: -1.67%

* * *

# Target Under Test: P. falciparum apicoplast DNA polymerase (Pf-apPOL) (Plasmodium falciparum, UniProt Q8ILY1)
# Protocol Description: Fluorescence-based high-throughput DNA polymerase assay (molecular beacon), primary screen and dose-response;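 as to % inhibition ApPOL 90': test concentration in µM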
# Format: biochemical
# Stated Conditions: DRC-2; 90'; concentration 40
Rule: % inhibition ApPOL 90' under 60% gives -1, otherwise 1.

Compound: O=C1CCCC2=C1C(c1ccccn1)C1=C(CCCC1=O)O2 [KU0194228]
Target Under Test: P. falciparum apicoplast DNA polymerase (Pf-apPOL) (Plasmodium falciparum, UniProt Q8ILY1)
Label Value: -1

Request: Would you say Nc1c(S(=O)(=O)O)cc(Nc2ccccc2)c2c1C(=O)c1ccccc1C2=O [KU0045407] shows % inhibition ApPOL 90' at minimum 60%?
Result: 1

Request: In plain terms: is recorded % inhibition ApPOL 90' at least 60% for CC(=O)Nc1cc(C(=O)NC(C)C)c2ccc(C)nc2c1 [KU0206312] ?
Result: 1

Request: Does the compound O=c1[nH]c2ccc([N+](=O)[O-])cc2c(-c2ccccc2)c1Sc1nc2ccccc2o1 [KU0067471] have recorded % inhibition ApPOL 90' that is 60% or more?
Result: 1

Request: % inhibition ApPOL 90' >= 60% for CCCCC(=O)N1CCc2c(nc3cc(-c4ccccc4Cl)[nH]n3c2=O)C1 [Molecule 37] ?
Result: 1

Request: State whether the measured % inhibition ApPOL 90' reaches 60%, counting equality as reaching it, for O=c1cc(CN2CCCCC2)c2cc3c(cc2o1)OCO3 [Molecule 56, O=c1cc(CN2CCCCC2)c2c(o1)cc1c(c2)OCO1]
Result: -1

Request: Hi team, for COc1ccc(C(=O)N2CCc3c(nc4cc(-c5ccccc5Cl)[nH]n4c3=O)C2)cn1 [Molecule 26] , is the recorded % inhibition ApPOL 90' at or above 60%?
Result: 1

Request: API: above_or_equal(metric=% inhibition ApPOL 90', cutoff=60%) for item Cc1ccc(C2=N/C(=C\c3ccc(I)o3)C(=O)O2)cc1[N+](=O)[O-] [KU0073890]
Result: 1

Request: Check the entry CCCCCCCCCCCC1SCC(C(=O)O)N1C(C)=O (stereo not drawn) [Molecule 72] : does % inhibition ApPOL 90' equal or exceed 60%?
Result: 1

* * *

# Target Under Test: P. falciparum apicoplast DNA polymerase (Pf-apPOL) (Plasmodium falciparum, UniProt Q8ILY1)
# Protocol Description: Fluorescence-based high-throughput DNA polymerase assay (molecular beacon), primary screen and dose-response
# Type: biochemical
# Stated Conditions: DRC-1; 10'; concentration 40
Reported % inhibition Apo pol 10' is given for each of the following molecules.

Below, 3 molecules whose answers are already recorded.
Molecule: Cl.NC(CO)C(=O)NNCc1ccc(O)c(O)c1O (stereo not drawn)
% inhibition Apo pol 10': 36.4325%

Molecule: CS(=O)(=O)c1cccc(C(=O)Nc2nnc(-c3ccno3)o2)c1
% inhibition Apo pol 10': 60.0862%

Molecule: COc1ccc(C(=O)Nc2cccc(-c3nc4ncccc4o3)c2)cc1[N+](=O)[O-]
% inhibition Apo pol 10': 4.461%

Request: // query % inhibition Apo pol 10' value for entry O=C(O)c1cccc(N2N=C(C(F)(F)F)/C(=C/c3ccc(-c4ccccc4[N+](=O)[O-])o3)C2=O)c1
Result: 91.4411%

Request: Given O=C(O)CC1=NN(c2cccc([N+](=O)[O-])c2)C(=O)C1 , state its recorded % inhibition Apo pol 10'.
Result: 76.8361%

Request: Dear colleague, I am looking for the recorded % inhibition Apo pol 10' of the following molecule: COc1cc(Cl)c(C)cc1NC(=O)Cn1ccc2c(=O)[nH]ccc21
Result: 82.7027%

Request: Which % inhibition Apo pol 10' is reported for this molecule? COCCN(CCOC)Cc1c(O)ccc2c1OC(=Cc1cc(Br)ccc1OC)C2=O
Result: 79.9378%

Request: What measured % inhibition Apo pol 10' goes with O=C1CCCC2=C1C(c1ccccn1)C1=C(CCCC1=O)O2 ?
Result: 62.1087%

Request: I have this molecule here, O=C(Nc1nnc(-c2ccno2)o1)c1ccc2ncsc2c1 , and I need its recorded % inhibition Apo pol 10'.
Result: 78.1502%

Request: So what's the measured % inhibition Apo pol 10' for this one? COc1ccc(CNC(=O)Cn2nc3c(c2NC(=O)Cc2cccs2)CSC3)cc1
Result: 74.6193%

Request: // returns reported % inhibition Apo pol 10' for input O=c1[nH]c2ccc(Br)cc2c(-c2ccccc2)c1C1=NNC(c2ccco2)C1 (stereo not drawn)
Result: 80.4182%

Request: Give the measured % inhibition Apo pol 10' of CCCCCCCCCCCC1SCC(C(=O)O)N1C(C)=O (stereo not drawn) .
Result: 35.0794%
